Target: TDO2 (Homo sapiens, UniProt P48775)
Construct: decreased levels of NFK in SW48 cells (high TDO expressing cells)
Sequence (P48775 whole entry): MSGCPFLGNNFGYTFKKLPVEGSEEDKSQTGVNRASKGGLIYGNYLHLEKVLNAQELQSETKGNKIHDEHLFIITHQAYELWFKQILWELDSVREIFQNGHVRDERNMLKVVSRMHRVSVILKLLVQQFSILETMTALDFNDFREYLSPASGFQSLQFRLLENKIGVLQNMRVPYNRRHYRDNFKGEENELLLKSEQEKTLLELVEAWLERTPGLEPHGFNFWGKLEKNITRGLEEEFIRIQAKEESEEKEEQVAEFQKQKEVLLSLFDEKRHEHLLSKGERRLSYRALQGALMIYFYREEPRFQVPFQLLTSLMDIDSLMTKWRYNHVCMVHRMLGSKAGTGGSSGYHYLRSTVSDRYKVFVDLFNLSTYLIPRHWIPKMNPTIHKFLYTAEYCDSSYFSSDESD
Experiment: TDO2 cell assay (NFK GreenScreen, SW48 cells)
Type: cell-based
Settings: SW48 cells (high TDO expressing), 200 uM tryptophan, 24 hours; Table 3; read-out: TDO2 Cell Fluor EC50
pEC50: −log10 of the molar value.
Parameter: pEC50

>  <Molecule>
NS(=O)(=O)c1ccc2c(c1)C(O)C(C1c3ccccc3-c3cncn31)CC2 (single isomer, unassigned) [Example 105c]

>  <Parameter>
pEC50

>  <Numeric readout>
7.11

$$$$
>  <Molecule>
Nc1cc2n(n1)CCC(C1c3ccccc3-c3cncn31)C2O (single isomer, unassigned) [Example 161c]

>  <Parameter>
pEC50

>  <Numeric readout>
6.00

$$$$

I. OC1CC2(CCC2)C1C1c2ccccc2-c2cncn21 (single isomer, unassigned) [Example 67c]
II. O[C@@H]1CCCC[C@H]1[C@H]1c2ccccc2-c2cncn21 [Example 03b]
// returns I or II , whichever has the lower pEC50 # reply format: chosen label
I
(I: 5.96, II: 7.08)

###

Molecular target: TDO2 (Homo sapiens)
Construct: decreased levels of NFK in SW48 cells (high TDO expressing cells)
Assay: TDO2 cell assay (NFK GreenScreen, SW48 cells)
Assay type: cell-based
Settings: SW48 cells (high TDO expressing), 200 uM tryptophan, 24 hours; Table 3; read-out: TDO2 Cell Fluor EC50
pEC50: −log10 of the molar value.
Parameter: pEC50

a. OC1CCCC1C1c2ccc(F)cc2-c2cncn21 (single isomer, unassigned) [Example 20b]
b. N#Cc1ccc2c(c1)[C@H](O)[C@@H]([C@@H]1c3ccccc3-c3cncn31)CC2 [Example 113a]
c. CC1(O)CCOCC1C1c2ccccc2-c2cncn21 (single isomer, unassigned) [Example 61c]
Ascending sort, pEC50. Reply with the labels, ordered as the question asks.
c, b, a

###

Target: IDO (Homo sapiens, UniProt P14902)
Construct: selective against A172+IFNg cells (high IDO expressing cells)
Sequence (P14902 whole entry): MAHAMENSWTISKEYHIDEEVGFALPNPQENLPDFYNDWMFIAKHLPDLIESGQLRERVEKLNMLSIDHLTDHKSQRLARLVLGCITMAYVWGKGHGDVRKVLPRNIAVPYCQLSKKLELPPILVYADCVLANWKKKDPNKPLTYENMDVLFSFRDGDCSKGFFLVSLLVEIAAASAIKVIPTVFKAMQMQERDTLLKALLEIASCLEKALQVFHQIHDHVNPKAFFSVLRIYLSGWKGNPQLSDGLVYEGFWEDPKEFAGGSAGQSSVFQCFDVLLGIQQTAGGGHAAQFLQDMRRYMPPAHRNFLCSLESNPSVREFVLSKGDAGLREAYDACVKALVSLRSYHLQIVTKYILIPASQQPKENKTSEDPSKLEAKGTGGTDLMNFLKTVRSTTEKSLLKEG
Test: IDO cell assay (NFK GreenScreen, A172+IFNg cells)
Settings: A172 cells + 100 ng/ml IFNγ (high IDO expressing), 100 uM tryptophan, 24 hours; TDO selectivity table; read-out: IDO cell Fluor EC50
Method: Cells are counted on a Vi-Cell (Beckman Coulter). […] The final DMSO concentration is 0.5%. Compounds of the invention were tested for selectivity against TDO over IDO. The cell based assay described above was used to test for TDO and IDO activity.
Parameter: EC50 (µM)

Solved entries:
>  <Compound>
OC1c2[nH]ncc2CCC1C1c2ccccc2-c2cncn21 (single isomer, unassigned) [Example 157g]

>  <Parameter>
EC50

>  <Numeric readout>
8

$$$$
>  <Compound>
NC(=O)c1ccc2c(c1)CC[C@@H]([C@H]1c3ccccc3-c3cncn31)[C@@H]2O [Example 60e]

>  <Parameter>
EC50

>  <Numeric readout>
1.4

$$$$
>  <Compound>
NC(=O)c1nc2c(s1)CCC(C1c3ccccc3-c3cncn31)C2O (single isomer, unassigned) [Example 149b]

>  <Parameter>
EC50

>  <Numeric readout>
2.1

$$$$

a. Cn1ncc2c1CCC(C1c3ccccc3-c3cncn31)C2O (single isomer, unassigned) [Example 93a]
b. CC1(C)C[C@@H](O)[C@@H]1[C@H]1c2ccccc2-c2cncn21 [Example 22b]
c. OC1c2cnccc2CCC1C1c2ccccc2-c2cncn21 (single isomer, unassigned) [Example 04e]
d. OC1c2cncnc2CCC1C1c2ccccc2-c2cncn21 (single isomer, unassigned) [Example 94c]
e. C[C@H](O)[C@H]1c2ccccc2-c2cncn21 [Example 42c]
Rank entries according to their EC50, from the largest number down. Reply with the labels, ordered as the question asks.
a, d, e, b, c

###

Target: TDO2 (Homo sapiens, UniProt P48775)
Construct: decreased levels of NFK in SW48 cells (high TDO expressing cells)
Test: TDO2 cell assay (NFK GreenScreen, SW48 cells)
Type: cell-based
Conditions: SW48 cells (high TDO expressing), 200 uM tryptophan, 24 hours; Table 3; read-out: TDO2 Cell Fluor EC50
Parameter: EC50 (µM)

Solved entries:
>  <Compound>
OC1COCCC1C1c2c(Cl)cccc2-c2cncn21 (single isomer, unassigned) [Example 69-1d]

>  <Target under test>
TDO2 (Homo sapiens, UniProt P48775)

>  <Measurement unit>
µM

>  <EC50>
4.6

$$$$
>  <Compound>
O=c1cccc2n1CCC(C1c3ccccc3-c3cncn31)C2O (single isomer, unassigned) [Example 29c]

>  <Target under test>
TDO2 (Homo sapiens, UniProt P48775)

>  <Measurement unit>
µM

>  <EC50>
24

$$$$
>  <Compound>
Cn1ncc2c1CCC(C1c3ccccc3-c3cncn31)C2O (single isomer, unassigned) [Example 93c]

>  <Target under test>
TDO2 (Homo sapiens, UniProt P48775)

>  <Measurement unit>
µM

>  <EC50>
1.4

$$$$
>  <Compound>
NS(=O)(=O)c1ccc2c(c1)C(O)C(C1c3ccccc3-c3cncn31)CC2 (single isomer, unassigned) [Example 105b]

>  <Target under test>
TDO2 (Homo sapiens, UniProt P48775)

>  <Measurement unit>
µM

>  <EC50>
8.6

$$$$
>  <Compound>
O[C@H]1COCC[C@H]1[C@H]1c2ccccc2-c2cncn21 [Example 06f]

>  <Target under test>
TDO2 (Homo sapiens, UniProt P48775)

>  <Measurement unit>
µM

>  <EC50>
0.9

$$$$

a. N#Cc1ccc2c(c1)[C@H](O)[C@H]([C@@H]1c3ccccc3-c3cncn31)CC2 (stereo in doubt) [Example 113e]
b. O[C@@H]1CCOC[C@H]1[C@@H]1c2ccc(F)cc2-c2cncn21 [Example 34d]
// returns a or b , whichever has the lower EC50 # reply format: chosen label
b
(b: 0.23 µM, a: 1.3 µM)

A. NC(=O)C1CCC(O)(C2c3ccccc3-c3cncn32)CC1 (single isomer, unassigned) [Example 140d]
B. O[C@H]1CCOC[C@@H]1[C@@H]1c2ccccc2-c2cncn21 [Example 05a]
// returns A or B , whichever has the lower EC50 # reply format: chosen label
A

1. CC(C)(C)OC(=O)N1CC2(CC(C3c4ccccc4-c4cncn43)C2O)C1 (single isomer, unassigned) [Example 41b]
2. OC1CCCC1C1c2ccc(F)cc2-c2cncn21 (single isomer, unassigned) [Example 20c]
3. OC1c2ccnn2CCCC1C1c2ccccc2-c2cncn21 (single isomer, unassigned) [Example 133e]
Rank entries according to their EC50, from the largest number down. Reply with the labels, ordered as the question asks.
2, 1, 3
(2: 3.6 µM, 1: 0.8 µM, 3: 0.28 µM)

A. CC1(C)CCC(C2c3ccccc3-c3cncn32)C1O (single isomer, unassigned) [Example 23c]
B. OC1C(C2c3ccccc3-c3cncn32)CCC12CCOCC2 (single isomer, unassigned) [Example 68e]
Sorting by EC50 in descending order, would A or B appear first? # reply format: chosen label
B
(B: 0.27 µM, A: 0.081 µM)

###

Target: TDO2 (Homo sapiens)
Construct: decreased levels of NFK in SW48 cells (high TDO expressing cells)
Assay: TDO2 cell assay (NFK GreenScreen, SW48 cells)
Type: cell-based
Conditions: SW48 cells (high TDO expressing), 200 uM tryptophan, 24 hours; Table 3; read-out: TDO2 Cell Fluor EC50
pEC50: −log10 of the molar value.
Parameter: pEC50

>  <Compound>
CC1(C)OC(C)(C)C(C2c3ccccc3-c3cncn32)C1O (single isomer, unassigned) [Example 84b]

>  <Target under test>
TDO2 (Homo sapiens)

>  <Parameter>
pEC50

>  <Numeric readout>
7.17

$$$$

P. NC(=O)c1nc2c(s1)CCC(C1c3ccccc3-c3cncn31)C2O (single isomer, unassigned) [Example 149c]
Q. OC1c2nncn2CCC1C1c2ccccc2-c2cncn21 (single isomer, unassigned) [Example 146-1d]
R. CC1(C)CCC(C2c3ccccc3-c3cncn32)C1O (single isomer, unassigned) [Example 23f]
S. Cn1cc2c(n1)CCC(C1c3ccccc3-c3cncn31)C2O (single isomer, unassigned) [Example 130d]
Rank entries according to their pEC50, from the largest number down. Reply with the labels, ordered as the question asks.
S, P, R, Q
(S: 7.06, P: 6.82, R: 5.57, Q: 4.92)

###

Biological target: TDO2 (Homo sapiens)
Construct: decreased levels of NFK in SW48 cells (high TDO expressing cells)
Experiment: TDO2 cell assay (NFK GreenScreen, SW48 cells)
Type: cell-based
Conditions: SW48 cells (high TDO expressing), 200 uM tryptophan, 24 hours; Table 3; read-out: TDO2 Cell Fluor EC50
Parameter: EC50 (µM)

Solved entries:
>  <Compound>
CCS(=O)(=O)N1CCC2(CC1)CC(C1c3ccccc3-c3cncn31)C2O (single isomer, unassigned) [Example 114c]

>  <EC50 / µM>
15

$$$$
>  <Compound>
CC1(C)C[C@@H](O)[C@H]1[C@@H]1c2ccccc2-c2cncn21 [Example 22e]

>  <EC50 / µM>
3.5

$$$$

P. OC1c2cnnn2CCC1C1c2ccccc2-c2cncn21 (single isomer, unassigned) [Example 146a]
Q. CC(C)(C)OC(=O)N1CC2(CC(C3c4ccccc4-c4cncn43)C2O)C1 (single isomer, unassigned) [Example 41d]
R. OC1CC(CF)(CF)C1C1c2ccccc2-c2cncn21 (single isomer, unassigned) [Example 150d]
S. O[C@H]1[C@H]([C@@H]2c3ccccc3-c3cncn32)CCCC1(F)F (single isomer, unassigned) [Example 106c]
Could you please order the items by EC50, going from the lowest number to the highest? Reply with the labels, ordered as the question asks.
P, Q, S, R
(P: 0.33 µM, Q: 3.2 µM, S: 8.1 µM, R: 18 µM)
